# Antibody titer, Mean values compiled below
System: anti-Aβ IgG antibody
Test: Example 6: anti-Aβ IgG antibody titer, Aβ peptide sequences with insertion of cysteine
Type: in vivo, C57BL/6 mice
Conditions: group mean of 4 mice; Day 7 from the final 4th immunization

POLYMER SEQUENCE: DAEFRHDSGYEVHHQKLVFFAEDVGSNKCGAIIG [33AA28Cys, Aβ peptide with insertion of cysteine between the 28th and 29th amino acid residues]
Antibody titer, Mean, ng/mL: 4105.0
//
POLYMER SEQUENCE: DAEFRHDSGYEVHHQKLVFFAEDVGSNKC [28AACys, 28-amino acid Aβ peptide with addition of cysteine]
Antibody titer, Mean, ng/mL: 18946.0
//
POLYMER SEQUENCE: DAEFRHDSGYEVHHQKLVFFAEDVGCSNK [28AA25Cys, Aβ peptide with insertion of cysteine between the 25th and 26th amino acid residues]
Antibody titer, Mean, ng/mL: 6860.8
//
POLYMER SEQUENCE: DAEFRHDSGYEVHHQKLVFFAEDVGSNKCGAIIGLM [35AA28Cys, Aβ peptide with insertion of cysteine between the 28th and 29th amino acid residues]
Antibody titer, Mean, ng/mL: 6897.5
//
POLYMER SEQUENCE: DAEFRHDSGYCEVHHQKLVFFAEDVGSNK [28AA10Cys, 28-amino acid Aβ peptide with insertion of cysteine after residue 10]
Antibody titer, Mean, ng/mL: 17.7
//
POLYMER SEQUENCE: DAEFRHDSGYEVHHQKLVCFFAEDVGSNK [28AA18Cys, 28-amino acid Aβ peptide with insertion of cysteine between 18th-19th amino acid residues]
Antibody titer, Mean, ng/mL: 611899.2
//
POLYMER SEQUENCE: DAEFRHDCSGYEVHHQKLVFFAEDVGSNK [28AA7Cys, 28-amino acid Aβ peptide with insertion of cysteine after residue 7]
Antibody titer, Mean, ng/mL: 23.0
